SYSTEM: human CPT1A (Homo sapiens)
Construct: made in house; host or cells: Saccharomyces cerevisiae (pESC-trp) or cultured mammalian cells (pCDNA3.1); mitochondrial extract
Sequence (P50416 1-773): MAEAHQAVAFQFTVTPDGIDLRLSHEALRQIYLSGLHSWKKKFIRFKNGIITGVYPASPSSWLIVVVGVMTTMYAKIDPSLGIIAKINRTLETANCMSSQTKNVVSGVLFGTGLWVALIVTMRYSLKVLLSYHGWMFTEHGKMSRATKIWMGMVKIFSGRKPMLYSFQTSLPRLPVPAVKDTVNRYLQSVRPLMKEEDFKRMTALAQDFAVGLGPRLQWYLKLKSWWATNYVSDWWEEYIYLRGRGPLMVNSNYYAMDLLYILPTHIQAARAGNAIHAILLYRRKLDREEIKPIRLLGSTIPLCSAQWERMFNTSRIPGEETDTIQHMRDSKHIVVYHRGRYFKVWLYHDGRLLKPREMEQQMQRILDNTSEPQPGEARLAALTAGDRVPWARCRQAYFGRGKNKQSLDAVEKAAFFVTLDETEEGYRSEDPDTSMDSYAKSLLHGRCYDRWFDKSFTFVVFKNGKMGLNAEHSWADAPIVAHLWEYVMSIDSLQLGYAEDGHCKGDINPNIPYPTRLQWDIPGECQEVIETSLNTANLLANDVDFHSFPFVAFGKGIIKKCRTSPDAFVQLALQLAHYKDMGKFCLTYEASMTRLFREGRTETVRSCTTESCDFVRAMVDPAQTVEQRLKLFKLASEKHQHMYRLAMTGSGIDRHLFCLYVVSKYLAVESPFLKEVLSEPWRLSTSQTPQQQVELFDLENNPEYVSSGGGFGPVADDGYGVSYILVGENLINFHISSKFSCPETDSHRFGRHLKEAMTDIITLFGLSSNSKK
TEST_METHOD_NOTES: Human CPT1A LC/MS assay
Format: biochemical
APPLIED_CONDITIONS: human CPT1A LC/MS assay, dose response format
pIC50: −log10 of the molar value.
MEASURE_NAME: pIC50

{"columns": ["MOLECULE", "MEASURE_NAME", "RESULT"],
 "data": [
  ["CCCCCCCCCCOc1ccc(C(=O)N[C@H](CC(=O)O)C[N+](C)(C)C)cc1 [Example S63, 2,2,2-trifluoroacetate]", "pIC50", "≥ 6.00"],
  ["CCCCCCCCCCc1ccc(S(=O)(=O)N[C@H](CC(=O)O)C[N+](C)(C)C)cc1 [Example S75, 2,2,2-trifluoroacetate]", "pIC50", "5.00 to 6.00"]
]}

Let us move to another entry and its pIC50.
Prompt: Requested field: pIC50. Item: Cc1ccc(C#Cc2ccc(S(=O)(=O)N[C@H](CC(=O)O)C[N+](C)(C)C)s2)cc1 [Example S80, 2,2,2-trifluoroacetate]
Response: 4.00 to 5.00

###

Entries and their GI50 values follow.
Test system: A54
TEST_METHOD_NOTES: Cell growth inhibition, SRB assay
Assay type: cell-based, human
APPLIED_CONDITIONS: Homo sapiens; Lung A54, 3% FBS
Reply numerically in µM, unit not repeated.

Worked set:
{"columns": ["COMPOUND", "NUMERIC_READOUT"],
 "data": [
  ["CCCCCCCCCCOc1ccc(C(=O)N[C@H](CC(=O)O)C[N+](C)(C)C)cc1 [Example S63, 2,2,2-trifluoroacetate]", 14],
  ["CCCCCCCCCCCCc1ccc(NS(=O)(=O)N[C@H](CC(=O)O)C[N+](C)(C)C)cc1", 21]
]}

Let us move to another entry and its GI50.
Prompt: Requested field: GI50. Item: CCCCCCCCc1ccc(NC(=O)N[C@H](CC(=O)[O-])C[N+](C)(C)C)cc1
Response: 25

###

Test system: Hs578T
TEST_METHOD_NOTES: Cell growth inhibition, SRB assay
Type: cell-based, human
APPLIED_CONDITIONS: Homo sapiens, Hs-578T; Breast Hs578T, 3% FBS
Entries and their GI50 values follow.
Reply numerically in µM, unit not repeated.

Worked set:
{"columns": ["COMPOUND", "OUTPUT_UNIT", "NUMERIC_READOUT"],
 "data": [
  ["CCCCCCCCCCc1ccc(C(=O)N[C@H](CC(=O)[O-])C[N+](C)(C)C)cc1 [Example S66]", "µM", 8.2],
  ["CCCCCCCCCCc1ccc(S(=O)(=O)N[C@H](CC(=O)O)C[N+](C)(C)C)cc1 [Example S75, 2,2,2-trifluoroacetate]", "µM", 13],
  ["CCCCCCCCCCOc1cccc(C(=O)N[C@H](CC(=O)[O-])C[N+](C)(C)C)c1 [Example S67]", "µM", 17]
]}

Let us move to another entry and its GI50.
Prompt: Requested field: GI50. Item: CCCCCCCCCCCCCCc1ccc(NS(=O)(=O)N[C@H](CC(=O)O)C[N+](C)(C)C)cc1 [Example S90]
Response: 8.2

###

Entries and their GI50 values follow.
Tested on: SW620
TEST_METHOD_NOTES: Cell growth inhibition, SRB assay
Assay type: cell-based, human
APPLIED_CONDITIONS: Homo sapiens, SW-620; Colon SW620, 3% FBS
Reply numerically in nM, unit not repeated.

Prompt: // fetch SW620 GI50 for CCCCCCCCCCCCCCc1ccc(NS(=O)(=O)N[C@H](CC(=O)O)C[N+](C)(C)C)cc1
Response: 2400

Prompt: Param item: CCCCCCCOc1ccc(NC(=O)N[C@H](CC(=O)[O-])C[N+](C)(C)C)cc1
Response: 19000

Prompt: Param item: CCCCCCCCCCc1ccc(C(=O)N[C@H](CC(=O)[O-])C[N+](C)(C)C)cc1
Response: 600

Prompt: Param item: CCCCCCCCCCCCc1ccc(NS(=O)(=O)N[C@H](CC(=O)O)C[N+](C)(C)C)cc1
Response: 1900

Prompt: Param item: CCCCCCCCCCOc1ccc(C(=O)N[C@H](CC(=O)O)C[N+](C)(C)C)cc1 [Example S63, 2,2,2-trifluoroacetate]
Response: 500

Prompt: Param item: CCCCCCCCCCc1ccc(S(=O)(=O)N[C@H](CC(=O)O)C[N+](C)(C)C)cc1 [Example S75, 2,2,2-trifluoroacetate]
Response: 4100

Prompt: Param item: CCCCCCCCCCOc1cccc(C(=O)N[C@H](CC(=O)[O-])C[N+](C)(C)C)c1
Response: 5500

Prompt: Param item: CCCCCCCCc1ccc(NC(=O)N[C@H](CC(=O)[O-])C[N+](C)(C)C)cc1
Response: 1500

###

SYSTEM: human CPT1A (Homo sapiens)
Construct: made in house; host or cells: Saccharomyces cerevisiae (pESC-trp) or cultured mammalian cells (pCDNA3.1); mitochondrial extract
TEST_METHOD_NOTES: Human CPT1A LC/MS assay
Type: biochemical
APPLIED_CONDITIONS: human CPT1A LC/MS assay, dose response format
pIC50: −log10 of the molar value.
MEASURE_NAME: pIC50

Worked set:
{"columns": ["MOLECULE", "RESULT"],
 "data": [
  ["C[N+](C)(C)C[C@@H](CC(=O)O)NC(=O)c1ccc(C#Cc2ccccc2)cc1 [Example S62, 2,2,2-trifluoroacetate]", "4.00 to 5.00"],
  ["C[N+](C)(C)C[C@@H](CC(=O)[O-])NC(=O)c1ccc(CCc2ccccc2)cc1", "4.00 to 5.00"],
  ["C[N+](C)(C)C[C@@H](CC(=O)O)NC(=O)c1ccc(CCc2ccsc2)s1 [Example S98, 2,2,2-trifluoroacetate]", "≥ 6.00"]
]}

Prompt: Requested field: pIC50. Item: CCCCCc1ccc(CCc2ccc(C(=O)N[C@H](CC(=O)O)C[N+](C)(C)C)s2)cc1 [Example S102, 2,2,2-trifluoroacetate]
Response: ≥ 6.00

Prompt: Param item: C[N+](C)(C)C[C@@H](CC(=O)O)NC(=O)Nc1ccc(OCc2ccccc2)cc1 [Example S12, acetate]
Response: 3.00 to 4.00

###

SYSTEM: human CPT1A (Homo sapiens)
Construct: made in house; host or cells: Saccharomyces cerevisiae (pESC-trp) or cultured mammalian cells (pCDNA3.1); mitochondrial extract
Sequence (P50416 1-773): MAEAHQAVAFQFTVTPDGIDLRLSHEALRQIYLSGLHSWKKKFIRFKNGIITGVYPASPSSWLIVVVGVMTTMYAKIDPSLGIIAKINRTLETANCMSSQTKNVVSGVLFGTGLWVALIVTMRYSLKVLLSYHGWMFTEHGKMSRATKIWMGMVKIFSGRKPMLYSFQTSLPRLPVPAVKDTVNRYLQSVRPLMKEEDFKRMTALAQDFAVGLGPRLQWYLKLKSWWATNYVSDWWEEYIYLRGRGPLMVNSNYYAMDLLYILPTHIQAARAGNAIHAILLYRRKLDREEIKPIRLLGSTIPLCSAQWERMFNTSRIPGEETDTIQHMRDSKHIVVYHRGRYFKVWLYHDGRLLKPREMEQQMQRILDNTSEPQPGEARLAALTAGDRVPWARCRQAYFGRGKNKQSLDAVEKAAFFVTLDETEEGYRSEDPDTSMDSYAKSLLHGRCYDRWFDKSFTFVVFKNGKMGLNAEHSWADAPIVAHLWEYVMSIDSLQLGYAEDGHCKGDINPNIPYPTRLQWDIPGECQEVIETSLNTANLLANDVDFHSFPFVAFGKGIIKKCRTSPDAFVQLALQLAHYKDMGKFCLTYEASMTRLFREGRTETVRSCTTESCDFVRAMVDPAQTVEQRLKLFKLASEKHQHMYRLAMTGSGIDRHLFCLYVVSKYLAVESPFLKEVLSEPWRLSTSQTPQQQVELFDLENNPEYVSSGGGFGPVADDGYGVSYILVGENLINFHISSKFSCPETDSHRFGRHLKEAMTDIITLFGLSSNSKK
TEST_METHOD_NOTES: Human CPT1A LC/MS assay
Assay type: biochemical
APPLIED_CONDITIONS: human CPT1A LC/MS assay, dose response format
MEASURE_NAME: IC50

Prompt: Requested field: IC50. Item: CN(C)C[C@@H](CC(=O)O)NC(=O)N(C)c1ccc(Oc2ccccc2)cc1 [Example S33]
Response: > 2500 µM

Prompt: Param item: CC(=O)Nc1ccc(C(=O)N[C@H](CC(=O)[O-])C[N+](C)(C)C)cc1 [Example S53]
Response: > 2500 µM

Prompt: Param item: C[N+](C)(C)C[C@@H](CC(=O)O)NC(=O)Nc1ccc(-c2ccccc2)cc1 [Example S17, acetate]
Response: 100 to 1000 µM
